# TARGET_OR_SYSTEM: T1, SPDEF (Homo sapiens, UniProt O95238 1-335)
# T1 sequence: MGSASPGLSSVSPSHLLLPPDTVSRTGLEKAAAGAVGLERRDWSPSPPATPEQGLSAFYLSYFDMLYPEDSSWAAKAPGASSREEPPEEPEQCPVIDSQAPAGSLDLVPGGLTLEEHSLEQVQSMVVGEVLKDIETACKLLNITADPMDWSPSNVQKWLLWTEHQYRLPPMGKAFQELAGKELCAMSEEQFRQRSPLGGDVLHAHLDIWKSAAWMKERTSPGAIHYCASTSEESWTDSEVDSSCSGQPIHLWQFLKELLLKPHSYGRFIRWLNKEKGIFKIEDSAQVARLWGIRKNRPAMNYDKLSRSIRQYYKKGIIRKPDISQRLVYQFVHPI
# TEST_DESCRIPTION: BLI (OCTET); EMSA: 25 mM HEPES pH 8.0, 100 mM NaCl, 50 mM KAc, 5 mM MgCl2, 5% glycerol, 1 mM DTT, 0.1 mg/mL BSA, ~22 C, 5 nM probe; OCTET: 50 mM HEPES pH 8.0, 100 mM NaCl, 50 mM KAc, 5 mM MgCl2, 40 mM glutathione, 5 mg/mL BSA, 0.05% Tween-20
# SETUP_CONDITIONS: protein: recombinant; tags: N-terminal GST; label: 5' biotin on strand 2 (Bio-T7 primer); blunt
MEASURED_QUANTITY: Kd (µM)
API: value field is a number in µM; no unit string.

Data request: Param item = ETS family probe (dsDNA) DNA 1: ACTTCCGGTTATAGTGAGTGCTATTA DNA 2: TAATAGCACTCACTATAACCGGAAGT ; retrieve measured Kd.
Data returned: 0.132
